read-out: Forkhead box O3 (FOXO3), FOXO3 (gene 2309); assay: LTEA_HepaRG_FOXO3: Life Technologies and Expression Analysis (LTEA) Assay for Forkhead box O3 (FOXO3) using HepaRG (AID 2283459); settings: mRNA level, 48 h; actives raise or lower the signal
Activity calls are given as the source filed them. How the source made its calls: active means hit-call score of the fitted dose curve at least 0.9, where 1 is the maximum; inactive means score below 0.9.
Tick one outcome: Yes (active), No (inactive)

Study these solved cases before continuing.
O=S1OCC2C(CO1)C1(Cl)C(Cl)=C(Cl)C2(Cl)C1(Cl)Cl (configuration not stated) = No
C[C@H]1[C@H](c2ccc(Cl)cc2)SC(=O)N1C(=O)NC1CCCCC1 = No
CCN(CC)C(=O)SCc1ccc(Cl)cc1 = No

Incoming: Tell me the assay call for N#CN please.
Outgoing: No

Incoming: // return assay outcome for CCOCN(C(=O)CCl)c1c(C)cccc1CC
Outgoing: No

Incoming: For this compound, state the assay outcome: O=[N+]([O-])/N=C1\NCCN1Cc1ccc(Cl)nc1
Outgoing: Yes

Incoming: In this assay, the call recorded for CCCN(CCOc1c(Cl)cc(Cl)cc1Cl)C(=O)n1ccnc1 was what?
Outgoing: No

Incoming: Dear all, I need the recorded test outcome for CN1CSC(=S)N(C)C1 , thank you.
Outgoing: No

Incoming: Hey, what did the test say about Clc1ccccc1-c1nnc(-c2ccccc2Cl)nn1 ?
Outgoing: No

Incoming: // outcome(item) with item = N#Cc1c(Cl)c(Cl)c(Cl)c(C#N)c1Cl
Outgoing: Yes

Incoming: Test call, this compound: CCc1ccc(C(=O)NN(C(=O)c2cc(C)cc(C)c2)C(C)(C)C)cc1
Outgoing: No

Incoming: Fill in: this test's call for O=S(=O)(O)C(F)(F)C(F)(F)C(F)(F)C(F)(F)C(F)(F)C(F)(F)C(F)(F)C(F)(F)F is ___
Outgoing: No

###

test: ATG_PXRE_CIS: Attagene CIS-FACTORIAL HepG2 Assay for human Pregnane X Receptor Element (PXRE) (AID 2282957); conditions: HepG2 Attagene CIS-FACTORIAL PXRE reporter, mRNA; actives raise or lower the signal
Calls of active or inactive are those of the source. How the source made its calls: active means hit-call score of the fitted dose curve at least 0.9, where 1 is the maximum; inactive means score below 0.9.
I would appreciate it if you answered using one of these outcomes: 1 = active, 0 = inactive

Before answering, review these 10 worked examples.
CCN(CC)C(=O)SCc1ccc(Cl)cc1 = 1
O=C(O)COc1ccc(Cl)cc1Cl = 0
CN1CSC(=S)N(C)C1 = 0
COP(=S)(OC)Oc1ccc([N+](=O)[O-])cc1 = 0
O=C(NC(=O)c1c(F)cccc1F)Nc1ccc(OC(F)(F)C(F)OC(F)(F)F)c(Cl)c1 (centres undefined) = 0
CC(C)(C)C(O)C(Oc1ccc(Cl)cc1)n1cncn1 (centres undefined) = 1
OCCOc1ccccc1 = 0
CNC(=O)CSP(=S)(OC)OC = 0
CC(C)OC(=O)Nc1cccc(Cl)c1 = 1
COC(=O)c1ccccc1S(=O)(=O)NC(=O)N(C)c1nc(C)nc(OC)n1 = 1

Now look at this one.
Incoming: Hello, I am checking results. What call was entered for Cc1cc(C)nc(NC(=O)NS(=O)(=O)c2ccccc2C(=O)OC2COC2)n1 ?
Outgoing: 0

###

assay: CEETOX_H295R_11DCORT: CeeTox H295R High-throughput Steroidogenesis Assay for 11-Deoxycortisol (11DCORT) (AID 2283432); conditions: actives raise or lower the signal
Activity calls are given as the source filed them. Rule for the calls: active = hit-call score of the fitted dose curve at least 0.9, where 1 is the maximum; inactive = score below 0.9.
Returns: one label drawn from active, inactive

N#Cc1c(Cl)c(Cl)c(Cl)c(C#N)c1Cl = inactive
C[C@H]1[C@H](c2ccc(Cl)cc2)SC(=O)N1C(=O)NC1CCCCC1 = inactive
CCC(C)Nc1c([N+](=O)[O-])cc(C(C)(C)C)cc1[N+](=O)[O-] (stereo unspecified) = active
O=[N+]([O-])/N=C1\NCCN1Cc1ccc(Cl)nc1 = inactive
CC(C)(C)C(O)/C(=C\c1ccc(Cl)cc1Cl)n1cncn1 (stereo unspecified) = inactive

Incoming: Hi team, can someone confirm the assay call for Oc1cc(Cl)ccc1Oc1ccc(Cl)cc1Cl ?
Outgoing: inactive
